System: DU-145 prostate
Test Details: NCI-60 one-dose screen, 48 h
Details: 10 µM unless noted
Compounds without any hit were thinned out: in the full panel of roughly 83,000, 20% have a hit. Active and inactive are the calls of the source. The calls were made as follows: active = growth percent below 10; inactive = the rest.
A correct response names exactly one class from true (active), false (inactive)

Study these solved cases before continuing.
Compound: CN1CCN(c2ccc(NC3=C(Cl)C(=O)c4ncccc4C3=O)cc2C(F)(F)F)CC1
Category: false

Compound: CN(C)c1ccc(Nc2c3ccccc3nc3cc(NC(=O)CCN4CCCC4)ccc23)cc1
Category: true

Compound: CCOC(=O)Oc1c(OC)cc(C(=O)c2ccc(OC)c(O)c2OC)cc1OC
Category: false

Compound: Cc1ccc(NC(=O)Cc2ccc(/C=C/C(=O)c3ncc[nH]3)cc2)cc1
Category: false

Dear colleague, could you share the recorded outcome for Cc1ccc(NS(=O)(=O)c2ccc(-c3cnc(C4CC4)o3)cc2)cc1C(F)(F)F when you have a moment? false

Look up the recorded call for O=C(NO)c1ccc(-n2nc(-c3ccccc3)c3ccccc32)cc1 in this test. false

Would you mind telling me which call this test gave Cc1ccc(C(=O)/C(=C/c2ccc([N+](=O)[O-])cc2)SCc2ccc(Cl)cc2)cc1 ? false

// outcome(item) with item = CCOC(=O)c1cc(C(=O)c2ccc(OC)c(OC)c2)n2c1ccc1ccccc12 false

Record lookup: outcome of this test for COc1cc2c(=O)n(CCN(C)C)c3c4cc5c(cc4ccc3c2cc1OC)OCO5 ? true

Which outcome was assigned to CCN(CC)CC[n+]1cc2cc(OC)c(OC)cc2c2ccc3cc4c(cc3c21)OCO4 in this test? true

Hi, sorry to bother you, what did the test record for O=C(CCN1CCCC1)Nc1ccc2c(NCCCCc3ccccc3)c3ccccc3nc2c1 ? true

Query: recorded result category for COc1cccc(-c2nc3occn3c2-c2ccnc(NCCNS(=O)(=O)c3ccc(C(F)(F)F)cc3)n2)c1 in this test false

Which outcome was assigned to Cc1nc2sccn2c1-c1nc2sccn2c1/C=C1/C(=O)Nc2ccccc21 in this test? false

Please indicate how the test categorized COc1cc(OC)cc(C(=O)C[n+]2cccc3cc[nH]c32)c1 . false

Per the assay record, what outcome was assigned to CC(Oc1ccc(C(=O)O)cc1C(F)(F)F)c1ccc(Oc2ccccc2)cn1 (stereo not given) ? false

What did the test return for COc1cc(C2C3CC4CCCC[C@H]4N3[C@@]3(C(=O)Nc4cc(Cl)ccc43)C2C(=O)c2nc3ccccc3[nH]2)cc(OC)c1OC (stereo not given in full) ? false

For Cc1c(C)c([N+](=O)[O-])c(C)c([N+](=O)[O-])c1C , which call appears in the assay record? false

Please indicate how the test categorized CCN(Cc1ccccc1)c1ccc(C=O)cc1 . false

In this assay, the call recorded for NNC(=O)c1ccc(-n2nc(-c3ccccc3)c3ccccc32)cc1 was what? false

Hello, I am checking results. What call was entered for CCOC(=O)C1=C(C)NC(SCc2cc(=O)oc3ccc(F)cc23)=N[C@@H]1c1cccc2ccccc12 ? false

----------
Test system: T-47D breast
Test Details: NCI-60 one-dose screen, 48 h (100 = growth as untreated, 0 = no growth, -100 = all killed)
Details: 10 µM unless noted
Experimental: Growth inhibition of the T-47D human tumor cell line is measured as a screen for anti-cancer activity. Cells are grown in 96 well plates and exposed to the test compound for 48 hours. Compounds are tested at a single concentration, which is 10^-5 M for most compounds. The reported endpoint is percent growth (GI% or GIPRCNT), where numbers from 0 - 100% represent growth inhibition, and numbers from -100% - 0 represent cell death. For example, a value of 40 represents 60% growth inhibition. […]
Compounds without any hit were thinned out: in the full panel of roughly 83,000, 20% have a hit.
Hi! Could you tag entries with growth below 40% as MET, and those at or above as NOT MET? Much appreciated.

Worked examples follow.
Molecule: O=C(C[n+]1cccc2ccccc21)c1ccc(O)c(O)c1
Category: NOT MET

Molecule: CNCCOc1nc2c3cnccc3cc(-c3cc(OC)c(OC)c(OC)c3)c2c2ccncc12
Category: MET

Please state whether growth is below 40% for C=C1C(=O)O[C@H]2[C@H]1CC/C(CNC(=O)/C=C/c1cccc(OC)c1)=C\CC[C@@]1(C)O[C@@H]21 MET

Strictly below 40%: is that where growth of N#CC1=C(/N=C/c2ccccc2)Oc2c(ccc3ccccc23)C1c1ccc([N+](=O)[O-])cc1 (centres undefined) sits? NOT MET

Find out if reported growth for O=C1Nc2cc(Cl)ccc2/C1=C\c1c(-c2ccc(F)cc2)nc2ccccn12 is less than 40% MET

Lab note: confirm whether the reported growth for this molecule is below 40%, equality not counting. molecule: Cc1ccc(NC(=O)c2cc(-c3nc4ccccc4s3)c(=O)n(NS(=O)(=O)c3ccc(Cl)cc3)c2N)cc1 NOT MET

Consider CCN1C(=O)/C(=C/C(=O)OC)S/C1=N\NC(=O)c1cc2ccc1/C=C\c1ccc(cc1)/C=C\2 . Does its growth lie strictly below 40%? NOT MET

API: query returns whether the molecule falls strictly under 40% in growth. Query: N#C/C(=C\c1ccc(C(F)(F)F)cc1)c1cc2ccccc2[nH]1 NOT MET

----------
System: U251 CNS
Test Details: NCI-60 one-dose screen, 48 h
Details: 10 µM unless noted
About 83,000 compounds went through this panel and 20% of them were active in at least one assay; those are over-represented in the sample as a whole. Activity calls are given as the source filed them. Rule for the calls: active = growth percent below 10; inactive = the rest.
Pick from TRUE (active), FALSE (inactive) when you respond.

Here are 4 molecules together with their reported answers.
Molecule: CNC(=O)c1cccc(Cn2nc(C)c(NC(=O)c3ccc(COc4ccc(C(F)(F)F)cc4C)cc3)c2C)n1
Category: FALSE
//
Molecule: O=S(=O)(NCCNc1nccc(-c2c(-c3cccc(O)c3)nc3occn23)n1)c1ccccc1
Category: FALSE
//
Molecule: O=C(c1ccccc1)N1N=C(c2ccc(-n3ccc(C(F)(F)F)n3)c(F)c2)CC1c1ccc[nH]1 (stereo not given)
Category: FALSE
//
Molecule: O=C(CCN1CCCC1)c1ccc([N+](=O)[O-])cc1
Category: FALSE

Next, consider the following molecule.
Field: outcome | Entry: O=C1c2ccc3c4c(ccc(c24)C(=O)N1CCCNCc1ccccc1F)C(=O)N(CCCNCc1ccccc1F)C3=O TRUE

----------
Test system: NCI/ADR-RES ovarian
Test Details: NCI-60 one-dose screen, 48 h (100 = growth as untreated, 0 = no growth, -100 = all killed)
Details: 10 µM unless noted
The panel holds about 83,000 compounds, 20% with a hit somewhere; the sample as a whole holds those more often.
# growth per entry
Provide only the numeric value, understood in %.

Molecule: COc1ccc(/C=C2\Oc3cc(OCCCCCN4CCCCC4)ccc3C2=O)cc1OC
Target: NCI/ADR-RES ovarian
Unit Abbrev: %
growth: 84
--
Molecule: O=C1Nc2ccc(F)cc2/C1=C\c1c(-c2ccccc2)nc2ccccn12
Target: NCI/ADR-RES ovarian
Unit Abbrev: %
growth: 38.1
--
Molecule: O=C(CSc1nc2ccccc2[nH]1)NCc1ccccc1
Target: NCI/ADR-RES ovarian
Unit Abbrev: %
growth: 102
--
Molecule: COc1cc(NC(C)CCCNC(=O)CCC(=O)NCCCNCCCCCCCCNCCCNC(=O)CCC(=O)NCCCC(C)Nc2cc(OC)cc3cccnc23)c2ncccc2c1 (stereo not given)
Target: NCI/ADR-RES ovarian
Unit Abbrev: %
growth: 91.7

Next, consider the following molecule.
// field: growth; key: COc1cc2oc(-c3cccc(C(=O)Nc4ccccc4)c3)cc(=O)c2c(O)c1OC ; value = 79.1

----------
Tested on: 786-0 renal
Test Details: NCI-60 one-dose screen, 48 h (100 = growth as untreated, 0 = no growth, -100 = all killed)
Details: 10 µM unless noted
The panel holds about 83,000 compounds, 20% with a hit somewhere; the sample as a whole holds those more often.
Quantity: growth (%)
Quick reminder: number only, in %, skip the unit.

Compound: COc1ccc(-c2cnc3c(-c4cccc5cnccc45)cnn3c2)cc1
growth / %: 29.4

Compound: O=C(c1ccccc1)N1N=C(c2ccc(-n3ccc(C(F)(F)F)n3)c(F)c2)CC1c1ccc[nH]1 (stereo not given)
growth / %: 97.1

Compound: Cc1nn(-c2ccccc2)c(Oc2c(Cl)cccc2Cl)c1/C=N/N=c1\sc2ccccc2n1C
growth / %: 50.8

Compound: CCNC(=O)Oc1ccc(/C(=C(\C)c2ccccc2)c2ccc(OCCN3CCCCC3)cc2)cc1
growth / %: 16.4

Please look at the following compound next.
Sample Cn1c(N2NC(=O)C(N=Nc3ccc(S(N)(=O)=O)cc3)C2=O)nc(-c2ccco2)c(C#N)c1=O (stereo not given) ; growth observed: 100

----------
Test system: EKVX NSCLC
Test Details: NCI-60 one-dose screen, 48 h
Details: 10 µM unless noted
This is part of a sample that, as a whole, favours compounds with a hit. Of some 83,000 tested, about 20% had one in any assay. Activity calls are given as the source filed them. Rule for the calls: active = growth percent below 10; inactive = the rest.
Respond using exactly one of the listed classes: Y (active), N (inactive)

# count of solved cases: 8
Compound: NC(=NCCCOc1ccc(F)cc1)Nc1ccc(I)cc1
Category: N
//
Compound: Oc1ccc(C2c3ccccc3Oc3ccccc32)c2cccnc12
Category: N
//
Compound: C=C(C)[C@@H]1CC[C@]2(CN)CC[C@]3(C)[C@H](CC[C@@H]4[C@@]5(C)CCCNC(C)(C)[C@@H]5CC[C@]43C)[C@@H]12
Category: Y
//
Compound: C=C1C(=O)O[C@H]2[C@H]1CC/C(COC(=O)NCC(C)c1ccc(CC(C)C)cc1)=C\CC[C@@]1(C)O[C@@H]21 (some centres undefined)
Category: Y
//
Compound: O=C(CSc1nc2ccccc2[nH]1)NCc1ccccc1
Category: N
//
Compound: COc1ccc(-c2cnc3c(-c4cccc5cnccc45)cnn3c2)cc1
Category: N
//
Compound: O=C(c1nc2ccccc2[nH]1)C1C(c2ccc(Br)cc2)C2CC3CCCC[C@H]3N2[C@@]12C(=O)Nc1cc(Cl)ccc12 (some centres undefined)
Category: N
//
Compound: COc1cc2nc(-c3ccc(C(F)(F)F)cc3)cc(OCCCN3CCCC3)c2cc1OC
Category: N

For CN(C)c1ccc(C2C(C#N)=C(/N=C/c3ccccc3)Oc3c2ccc2ccccc32)cc1 (centres undefined) , which call appears in the assay record? N
